System: SERPINA7 (gene 6906)
Assay: CCTE_GLTED_hTBG: CCTE's human Thyroxine-binding Globulin (TBG) Inhibition Assay, Great Lakes Toxicology and Ecology Division (GLTED) Lab (AID 2284343);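 further: active chemicals lower fluorescence versus DMSO baseline by displacing probe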
Calls of active or inactive are those of the source. How the source made its calls: active means hit-call score of the fitted dose curve at least 0.9, where 1 is the maximum; inconclusive means response in the unintended direction; inactive means score below 0.9.

>  <COMPOUND>
O=C1OC(c2ccc(O)cc2)(c2ccc(O)cc2)c2ccccc21

>  <AC50>
3.3 µM (active)

$$$$
>  <COMPOUND>
O=C(O)c1[nH]n(-c2ccc(S(=O)(=O)O)cc2)c(=O)c1N=Nc1ccc(S(=O)(=O)O)cc1

>  <AC50>
27.1 µM (active)

$$$$
>  <COMPOUND>
S=c1[nH]c2ccccc2s1

>  <AC50>
36.4 µM (active)

$$$$
>  <COMPOUND>
O=Cc1ccccc1C=O

>  <AC50>
8.72 µM (active)

$$$$
>  <COMPOUND>
O=C1c2c(O)cccc2Cc2cccc(O)c21

>  <AC50>
41.1 µM (active)

$$$$
>  <COMPOUND>
O=C(Oc1ccccc1)c1cccc(C(=O)Oc2ccccc2)c1

>  <AC50>
9.91 µM (active)

$$$$
>  <COMPOUND>
Cc1c(C)c2c(c(C)c1O)CCC(C)(COc1ccc(CC3SC(=O)NC3=O)cc1)O2 (centres undefined)

>  <AC50>
8.3 µM (active)

$$$$
>  <COMPOUND>
CCCCCCCCCCCCCCOS(=O)(=O)O

>  <AC50>
27.7 µM (active)

$$$$
>  <COMPOUND>
Cc1ccc(C(C)(C)C)c(O)c1

>  <AC50>
26.7 µM (active)

$$$$
